assay protocol: protein stability index of a GFP-peptide fusion (GPS, HEK-293T) (PSI 1-6); higher = more stable;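 also: 24-mer peptide tiles fused after GFP, lentivirally expressed, FACS-sorted into six equal bins by GFP/DsRed ratio, decoded by Illumina sequencing, PSI is the read-weighted mean bin number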
experimental setup: treatment: DMSO; c terminus: a fixed tail appended
As shown below, each of these sequences has a reported protein stability index value.
Write no unit; give the number alone.

In [3]: df
Out[3]:
                       sequence_input  observed_result
0    TLEQEQEALVNRLWKRMDKLEAEK [CCDC6]             4.42
1    ENRLSVFFSVIFMTVGILSNSLAI [PTGFR]             3.14
2     LLLERAAAGSPRSPGPLPGARGLH [ISL2]              2.8
3  LVFLELAQFHCAYQLADWCLHHIC [RHOBTB2]             3.16
4    GRRLKSPQAPDPEEEENRDSQQPG [FANCE]             5.44
5    PGGPGAMTESLEASEFLEQSMSQT [RSPH3]             5.27

Now for a further sequence.
Input line: For the sequence shown here, GAEPGTYLTGTINGDPESVASLHW [ADAMTS4] , give the reported protein stability index.
Output line: 4.52
